molecular target: BRD4-BDI (Homo sapiens)
OBSERVED PROPERTY: pIC50
When answering, recall that pIC50 equals minus log10 of the concentration in mol/L, and write that number alone.

What value of pIC50 on BRD4-BDI (Homo sapiens) does O=C1c2ccc(Oc3cccc(Oc4ccc5c(c4)C(=O)N(c4ccc(O)cc4)C5=O)c3)cc2C(=O)N1c1ccc(O)cc1 have?
5.96

Write down the reported pIC50 of CC(=O)N1CCc2c(sc3nc(SCC(=O)Nc4cccnc4C)n(Cc4ccco4)c(=O)c23)C1 , test system: BRD4-BDI (Homo sapiens).
5.89

Form field - read-out: pIC50; system: BRD4-BDI (Homo sapiens); submitted item: CCc1cccc(C)c1NS(=O)(=O)c1cc(-c2c(C)noc2C)ccc1C
5.03

Requested read-out pIC50, target or system BRD4-BDI (Homo sapiens), entry Cc1ccc(-c2c(C)noc2C)cc1S(=O)(=O)Nc1cccc(C)c1C
4.96

What value of pIC50 on BRD4-BDI (Homo sapiens) does Cc1cc(F)ccc1NS(=O)(=O)c1cc(-c2c(C)noc2C)ccc1C have?
5.13

Which pIC50 is reported with BRD4-BDI (Homo sapiens) for this entry: COc1cc(C(=O)C(=Cc2ccncc2)c2nc3ccccc3o2)cc(OC)c1OC ?
5.37

State its pIC50 on BRD4-BDI (Homo sapiens): CC(=O)N1CCc2c(sc3nc(SCC(=O)Nc4cc(Cl)ccc4C)n(Cc4ccco4)c(=O)c23)C1
5.40

----------
test system: NB4; experiment: cells; set-up: species or system MOLM-14, CCRF-CEM, K-562; conditions: Homo sapiens, NB-4, 72 h, read-out: Cells viability EC50 NB4 (µM)
OBSERVED PROPERTY: EC50

Give EC50 (NB4) of the following molecule: CC(=O)N1CCc2c(sc3nc(SCC(=O)Nc4cccnc4C)n(Cc4ccco4)c(=O)c23)C1
> 25 µM
